testedOn: Serine/threonine-protein kinase TAO3 (Homo sapiens)
Sequence (Q9H2K8 whole entry): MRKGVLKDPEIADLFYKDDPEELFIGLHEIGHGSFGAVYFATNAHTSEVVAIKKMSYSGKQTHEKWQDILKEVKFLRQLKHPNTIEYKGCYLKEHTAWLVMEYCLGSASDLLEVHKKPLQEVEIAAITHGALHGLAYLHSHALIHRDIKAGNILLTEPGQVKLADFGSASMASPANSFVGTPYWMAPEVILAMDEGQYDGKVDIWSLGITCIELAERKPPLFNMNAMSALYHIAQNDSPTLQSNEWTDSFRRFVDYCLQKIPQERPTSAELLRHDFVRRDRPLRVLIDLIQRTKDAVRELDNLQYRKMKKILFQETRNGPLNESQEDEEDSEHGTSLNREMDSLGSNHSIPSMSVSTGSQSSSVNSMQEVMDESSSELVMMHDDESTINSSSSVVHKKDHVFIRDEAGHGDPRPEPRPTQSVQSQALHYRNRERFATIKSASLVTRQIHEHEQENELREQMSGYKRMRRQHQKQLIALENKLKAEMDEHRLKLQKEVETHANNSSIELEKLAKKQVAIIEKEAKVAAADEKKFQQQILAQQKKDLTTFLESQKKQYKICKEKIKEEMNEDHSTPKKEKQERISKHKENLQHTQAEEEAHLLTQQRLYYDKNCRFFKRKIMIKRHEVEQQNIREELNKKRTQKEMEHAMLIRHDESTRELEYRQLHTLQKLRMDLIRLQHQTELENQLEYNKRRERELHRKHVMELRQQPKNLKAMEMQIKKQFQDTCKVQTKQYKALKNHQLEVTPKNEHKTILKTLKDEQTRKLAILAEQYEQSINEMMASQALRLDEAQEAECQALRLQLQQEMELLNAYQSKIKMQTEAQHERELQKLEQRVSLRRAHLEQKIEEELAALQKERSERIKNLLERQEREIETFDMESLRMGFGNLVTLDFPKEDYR
Counter-ions that a name gives are not always drawn. Activity calls are given as the source filed them.
The reply should be one of these categories: yes (1) (active), no (0) (inactive)

What classification did `FC(F)(F)c1ccc(/C=C/c2nc(COc3ccc(CCCCn4ccnn4)cc3)co2)cc1` end up with in this test?
no (0)

And the next one, O=C1NC(=O)[C@@H](c2cn3c4c(cccc24)CCC3)[C@@H]1c1c[nH]c2ccccc12 [TIVANTINIB] ?
no (0)

Note, next up: `CCNC(=O)C#Cc1ccc2c(c1)NC(=O)/C2=C(\Nc1ccc(CN(C)C)cc1)c1ccccc1`
no (0)

Please give the result for `Cc1nc(NC(=O)N2CCC[C@H]2C(N)=O)sc1-c1ccnc(C(C)(C)C(F)(F)F)c1` too.
no (0)

What about Cc1[nH]c(/C=C2\C(=O)Nc3ccccc32)c(C)c1CCC(=O)O [ORANTINIB] ?
no (0)

Same read-out for `Cc1nc(Nc2n[nH]c3c2CN(C(=O)N[C@H](CN(C)C)c2ccccc2)C3(C)C)c2sccc2n1` ?
no (0)

// next record `CC(=O)c1cnc2ccc(-c3cc(Cl)c(O)c(Cl)c3)nc2c1N[C@H]1CC[C@H](CN(C)C)CC1`
yes (1)

Quick one: C=CC(=O)Nc1cc2c(Nc3ccc(F)c(Cl)c3)ncnc2cc1C#CC(C)(C)N1CCN(C)CC1 [AV-412 FREE BASE]
no (0)

Try the compound `CN1C/C=C/CCOc2cccc(c2)-c2ccnc(n2)Nc2cccc(c2)C1`
yes (1)

Next entry: `Cc1nc2cc(-n3ncc(C(=O)c4cc5ccccc5[nH]4)c3N)ccc2[nH]1`
no (0)

Same question for `C[C@H]1CNCCCN1S(=O)(=O)c1cccc2cncc(F)c12` please.
yes (1)

Same for `O=C(Nc1c[nH]nc1-c1nc2cc(CN3CCOCC3)ccc2[nH]1)NC1CC1`
no (0)

Next compound: `CN1CCN(CCOc2cc(OC3CCOCC3)c3c(Nc4c(Cl)ccc5c4OCO5)ncnc3c2)CC1`
no (0)

Quick one: `Cc1cc(Nc2ncc(Cl)c(Nc3ccccc3S(=O)(=O)C(C)C)n2)c(OC(C)C)cc1C1CCNCC1`
no (0)

Same thing, different compound: CCS(=O)(=O)N1CCN(c2ccc(Nc3ncc(C(N)=O)c(NC4CC4)n3)cc2)CC1 [Cerdulatinib Hydrochloride]
yes (1)

Same lookup for `COc1c(OCCCN2CCOCC2)ccc2c1N=C(NC(=O)c1cnc(N)nc1)N1CCN=C21` , please.
no (0)

Subsequent entry: `CC(=O)NCC(=O)N1[C@@H]2CC[C@H]1c1ccc(Nc3ncc(C(F)(F)F)c(NC4CCC4)n3)cc12`
yes (1)

Now the compound `CCS(=O)(=O)c1cccc(-c2cc(C(=O)NC3CCN(C)CC3)c(C)c3[nH]c4ncc(C)cc4c23)c1`
no (0)

Next entry: `C#Cc1cccc(Nc2ncnc3cc(OC)c(OCCCCCCC(=O)NO)cc23)c1`
no (0)

What do you have for `Cn1cc(-c2cnn3c(N)c(Br)c([C@@H]4CCCNC4)nc23)cn1` ?
no (0)

What about this compound? `CO[C@H]1C[C@@H]2CC[C@@H](C)[C@@](O)(O2)C(=O)C(=O)N2CCCC[C@H]2C(=O)O[C@H]([C@H](C)C[C@@H]2CC[C@@H](O)[C@H](OC)C2)CC(=O)[C@H](C)/C=C(\C)[C@@H](O)[C@@H](OC)C(=O)[C@H](C)C[C@H](C)/C=C/C=C/C=C/1C`
no (0)

Would you kindly repeat that for `COc1ccc(S(=O)(=O)N(C(C)=O)c2ccccc2/C=C/c2cc[n+]([O-])cc2)cc1` ?
no (0)

Repeat with `Cc1cc(Nc2ncnc3ccc(NC4=NC(C)(C)CO4)cc23)ccc1Oc1ccn2ncnc2c1`
no (0)

Provenance of the data: ChEMBL document CHEMBL3991601
